- assay.details: Half life in human plasma at 1 uM by LC-MS/MS analysis
- Format: ADME, cell-free
assay.endpoint: half-life at 1 µM

* Cc1cncc(Cc2ccc(-c3ccccc3)nc2)c1 | > 2.5 h

---

- system: Cytochrome P450 11B2, mitochondrial (Homo sapiens, UniProt P19099)
- Sequence (P19099 whole entry): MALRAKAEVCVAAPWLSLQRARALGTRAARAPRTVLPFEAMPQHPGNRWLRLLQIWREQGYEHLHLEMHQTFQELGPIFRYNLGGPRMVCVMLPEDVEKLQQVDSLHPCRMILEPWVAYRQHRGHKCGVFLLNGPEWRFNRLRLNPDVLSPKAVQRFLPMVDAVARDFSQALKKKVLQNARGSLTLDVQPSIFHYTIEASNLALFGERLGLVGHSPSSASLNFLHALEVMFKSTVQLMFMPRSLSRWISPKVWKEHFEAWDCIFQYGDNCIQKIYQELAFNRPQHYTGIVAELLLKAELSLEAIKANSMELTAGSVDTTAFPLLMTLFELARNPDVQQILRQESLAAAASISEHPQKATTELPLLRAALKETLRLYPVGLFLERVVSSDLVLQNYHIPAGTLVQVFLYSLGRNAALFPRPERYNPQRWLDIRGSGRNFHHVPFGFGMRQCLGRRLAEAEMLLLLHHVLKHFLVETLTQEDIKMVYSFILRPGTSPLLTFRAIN
- assay.details: Inhibition of human CYP11B2 expressed in hamster V79MZh cells using [1,2-3H]-11-deoxycorticosterone as substrate
assay.endpoint: IC50 (nM)

• CC(c1ccc(-c2cccc3ccccc23)nc1)n1ccnc1 (configuration not stated) = 273
• c1ccc(-c2ncc(Cn3ccnc3)c3ccccc23)cc1 = 302
• c1ccc(-c2ccc(Cc3cncc4ccccc34)cn2)cc1 = 23
• c1ccc(-c2cnc(Cn3ccnc3)cn2)cc1 = 1020
• c1ccc(-c2ccc(Cc3ccncc3)cn2)cc1 = 621
• c1ccc2c(-c3ccc(Cn4ccnc4)cn3)cccc2c1 = 656
• c1ccc(-c2ccc(C(c3ccccc3)n3ccnc3)cn2)cc1 (configuration not stated) = 110
• c1ccc(-c2ccc(Cc3cncnc3)cn2)cc1 = 3110
• c1ccc2c(-c3ccc(C(C4CC4)n4ccnc4)cn3)cccc2c1 (configuration not stated) = 220
• c1ccc(-c2ccc(C(c3ccco3)n3ccnc3)cn2)cc1 (configuration not stated) = 74
• NC(=O)c1cncc(Cc2ccc(-c3ccccc3)nc2)c1 = 2920

---

- system: Cytochrome P450 11B2, mitochondrial (Homo sapiens, UniProt P19099)
- assay.details: Inhibition of human CYP11B2 expressed in hamster V79MZh cells using [1,2-3H]-11-deoxycorticosterone as substrate
pIC50: −log10 of the molar value.
assay.endpoint: pIC50

• c1ccc(-c2cncc(Cc3ccc(-c4ccccc4)nc3)c2)cc1 = 9.30
• COc1cncc(Cc2ccc(-c3ccccc3)nc2)c1 = 7.60
• c1cn(C(c2ccc(-c3ccsc3)nc2)C2CC2)cn1 (stereo not drawn) = 7.51
• CCC(c1ccc(-c2ccccc2)nc1)n1ccnc1 (stereo not drawn) = 7.04
• c1ccc(-c2ccc(Cn3ccnc3)cn2)cc1 = 5.85
• c1ccc(-c2ccc(Cc3cccnc3)cn2)cc1 = 6.49
• c1ccc(-c2ccc(Cn3ccnc3)nn2)cc1 = 5.34
• Cc1ccncc1Cc1ccc(-c2ccccc2)nc1 = 7.72
• CC(C)C(c1ccc(-c2ccccc2)nc1)n1ccnc1 (stereo not drawn) = 7.55
• c1ccc(-c2ccc(Oc3cccnc3)cn2)cc1 = 5.73
• Cc1cncc(Cc2ccc(-c3ccccc3)nc2)c1 = 7.48
• CC(c1ccc(-c2ccccc2)nc1)n1ccnc1 (stereo not drawn) = 6.70

---

- system: Cytochrome P450 2A6 (Homo sapiens)
- Sequence (P11509 whole entry): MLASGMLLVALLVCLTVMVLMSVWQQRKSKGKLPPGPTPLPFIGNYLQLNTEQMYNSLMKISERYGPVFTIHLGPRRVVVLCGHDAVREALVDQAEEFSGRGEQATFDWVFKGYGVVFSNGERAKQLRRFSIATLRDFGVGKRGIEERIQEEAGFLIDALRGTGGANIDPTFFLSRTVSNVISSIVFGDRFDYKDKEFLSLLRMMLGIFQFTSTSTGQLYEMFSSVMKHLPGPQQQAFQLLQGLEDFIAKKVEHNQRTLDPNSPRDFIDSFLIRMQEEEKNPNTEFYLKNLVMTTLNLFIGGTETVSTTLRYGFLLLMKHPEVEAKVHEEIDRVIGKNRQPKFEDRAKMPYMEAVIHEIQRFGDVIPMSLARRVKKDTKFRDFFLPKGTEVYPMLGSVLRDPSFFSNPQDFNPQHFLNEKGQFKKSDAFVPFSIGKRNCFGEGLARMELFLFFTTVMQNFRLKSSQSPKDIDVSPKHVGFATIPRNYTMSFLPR
assay.endpoint: IC50 (µM)

- Cc1cncc(Cc2ccc(-c3ccccc3)nc2)c1: 106

---

- assay.details: Half life in human liver S9 fraction at 1 uM by LC-MS/MS analysis
- Type: ADME, subcellular
assay.endpoint: half-life at 1 µM

• Cc1cncc(Cc2ccc(-c3ccccc3)nc2)c1 = > 150 min

---

- assay.details: Cytotoxicity against HEK293 cells after 24 hrs
- Assay type: cell-based
- measurement.context: human, read-out: LC50
Listing of recorded CC50 at 24 h by entry.
assay.endpoint: CC50 at 24 h

* COc1cccc2c1C(=O)c1c(O)c3c(c(O)c1C2=O)C[C@@](O)(C(=O)CO)C[C@@H]3O[C@H]1C[C@H](N)[C@H](O)[C@H](C)O1 [DOXORUBICIN] | 4.3 µM
* Cc1cncc(Cc2ccc(-c3ccccc3)nc2)c1 | 61.4 µM
* CO[C@H]1/C=C/O[C@@]2(C)Oc3c(C)c(O)c4c(O)c(c(/C=N/N5CCN(C)CC5)c(O)c4c3C2=O)NC(=O)/C(C)=C\C=C\[C@H](C)[C@H](O)[C@@H](C)[C@@H](O)[C@@H](C)[C@H](OC(C)=O)[C@@H]1C [RIFAMPIN] | > 100 µM

---

- system: Cytochrome P450 11B1, mitochondrial (Rattus norvegicus, UniProt P15393)
- Sequence (P15393 whole entry): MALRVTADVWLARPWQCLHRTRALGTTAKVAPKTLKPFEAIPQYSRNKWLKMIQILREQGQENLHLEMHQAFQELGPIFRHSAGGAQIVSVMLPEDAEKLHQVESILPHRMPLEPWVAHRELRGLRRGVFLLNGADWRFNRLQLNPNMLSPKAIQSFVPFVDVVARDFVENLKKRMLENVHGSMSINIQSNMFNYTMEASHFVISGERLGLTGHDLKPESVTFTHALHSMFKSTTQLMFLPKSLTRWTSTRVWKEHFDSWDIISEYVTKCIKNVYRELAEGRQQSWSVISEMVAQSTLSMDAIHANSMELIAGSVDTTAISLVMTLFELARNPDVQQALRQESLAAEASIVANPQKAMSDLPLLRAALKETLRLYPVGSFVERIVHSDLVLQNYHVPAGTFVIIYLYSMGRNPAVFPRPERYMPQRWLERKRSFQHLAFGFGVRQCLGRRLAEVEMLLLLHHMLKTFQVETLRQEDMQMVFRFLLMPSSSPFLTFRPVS
- assay.details: Inhibition of rat CYP11B1 expressed in hamster V79MZh cells using [1,2-3H]-11-deoxycorticosterone as substrate
assay.endpoint: IC50 (µM)

- Cc1cncc(Cc2ccc(-c3ccccc3)nc2)c1: 2.44

---

- assay.details: Half life in rat plasma at 1 uM by LC-MS/MS analysis
- Assay type: ADME, cell-free
assay.endpoint: half-life at 1 µM

- Cc1cncc(Cc2ccc(-c3ccccc3)nc2)c1: > 2.5 h

---

- system: CYP19 (aromatase) (Homo sapiens, UniProt P11511)
- Sequence (P11511 whole entry): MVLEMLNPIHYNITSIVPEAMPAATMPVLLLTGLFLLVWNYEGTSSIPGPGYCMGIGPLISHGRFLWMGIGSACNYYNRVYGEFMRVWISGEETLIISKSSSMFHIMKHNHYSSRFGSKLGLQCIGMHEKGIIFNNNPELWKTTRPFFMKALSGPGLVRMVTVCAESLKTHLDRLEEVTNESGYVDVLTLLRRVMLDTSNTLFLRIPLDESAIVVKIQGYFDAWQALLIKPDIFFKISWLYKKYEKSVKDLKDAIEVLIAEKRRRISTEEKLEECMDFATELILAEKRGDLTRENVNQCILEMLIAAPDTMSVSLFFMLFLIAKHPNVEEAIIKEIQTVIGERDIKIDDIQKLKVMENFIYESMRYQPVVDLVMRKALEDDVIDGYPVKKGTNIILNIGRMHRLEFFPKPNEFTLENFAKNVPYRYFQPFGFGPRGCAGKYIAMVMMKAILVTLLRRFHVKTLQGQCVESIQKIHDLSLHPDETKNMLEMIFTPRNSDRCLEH
- assay.details: Inhibition of microsomal CYP19 in human placenta using [1beta-3H]-androstenedione as substrate at 2 uM by 3H2O method relative to control
- measurement.context: placental microsomes, probe [1beta-3H]-androstenedione
assay.endpoint: inhibition at 2 µM

- CC(c1ccc(-c2ccccc2)nc1)n1ccnc1 (stereo not drawn): 1%
- Cc1cncc(Cc2ccc(-c3ccccc3)nc2)c1: 1%
- c1ccc(-c2ccc(Cc3cccnc3)cn2)cc1: 0%

---

- system: CYP17 (Homo sapiens)
- Sequence (P05093 whole entry): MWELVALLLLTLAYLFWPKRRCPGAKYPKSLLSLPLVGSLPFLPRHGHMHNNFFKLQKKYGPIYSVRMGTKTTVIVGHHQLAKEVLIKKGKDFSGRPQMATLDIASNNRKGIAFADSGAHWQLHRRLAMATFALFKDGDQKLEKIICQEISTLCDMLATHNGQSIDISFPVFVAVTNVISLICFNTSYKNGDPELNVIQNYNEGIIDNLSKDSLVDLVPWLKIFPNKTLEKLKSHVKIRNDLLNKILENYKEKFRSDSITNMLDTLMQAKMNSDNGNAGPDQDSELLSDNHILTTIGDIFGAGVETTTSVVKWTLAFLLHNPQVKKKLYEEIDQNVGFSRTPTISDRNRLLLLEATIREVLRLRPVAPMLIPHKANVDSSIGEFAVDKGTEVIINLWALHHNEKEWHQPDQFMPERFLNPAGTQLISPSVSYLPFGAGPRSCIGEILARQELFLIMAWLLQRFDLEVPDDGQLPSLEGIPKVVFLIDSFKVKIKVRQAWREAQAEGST
- assay.details: Inhibition of human CYP17 expressed in Escherichia coli co-expressing rat NADPH-P450 reductase using progesterone as substrate at 2 uM relative to control
- measurement.context: probe progesterone
Listing of recorded inhibition at 2 µM by entry.
assay.endpoint: inhibition at 2 µM (%)

• Cc1cncc(Cc2ccc(-c3ccccc3)nc2)c1 = 5
• CC(c1ccc(-c2ccccc2)nc1)n1ccnc1 (centres undefined) = 13
• c1ccc(-c2ccc(Cc3cccnc3)cn2)cc1 = 4
• CC(C)(C(=O)c1cccnc1)c1cccnc1 = 3

---

- system: Cytochrome P450 11B1, mitochondrial (Homo sapiens)
- Sequence (P15538 whole entry): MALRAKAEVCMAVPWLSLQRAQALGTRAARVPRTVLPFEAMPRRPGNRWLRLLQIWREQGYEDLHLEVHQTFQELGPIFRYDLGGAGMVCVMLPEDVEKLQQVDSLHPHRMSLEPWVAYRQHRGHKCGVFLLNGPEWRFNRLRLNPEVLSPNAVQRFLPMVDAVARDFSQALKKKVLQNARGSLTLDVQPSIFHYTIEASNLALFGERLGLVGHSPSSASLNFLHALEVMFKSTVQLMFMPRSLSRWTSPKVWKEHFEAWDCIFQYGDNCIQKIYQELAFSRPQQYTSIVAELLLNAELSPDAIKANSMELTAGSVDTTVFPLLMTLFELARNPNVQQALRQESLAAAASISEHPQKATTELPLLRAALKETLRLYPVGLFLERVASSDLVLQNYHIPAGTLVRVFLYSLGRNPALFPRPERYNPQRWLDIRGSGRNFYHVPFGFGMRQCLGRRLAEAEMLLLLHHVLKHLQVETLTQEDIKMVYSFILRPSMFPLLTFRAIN
- assay.details: Inhibition of human CYP11B1 expressed in hamster V79MZh cells using [1,2-3H]-11-deoxycorticosterone as substrate
pIC50: −log10 of the molar value.
assay.endpoint: pIC50

* c1ccc(-c2cnc(Cn3ccnc3)cn2)cc1 | 6.21
* CC(c1ccc(-c2cccc3ccccc23)nc1)n1ccnc1 (centres undefined) | 7.22
* c1ccc(-c2ccc(Cc3cncc4ccccc34)cn2)cc1 | 8.22
* CC(c1ccc(-c2ccsc2)nc1)n1ccnc1 (centres undefined) | 7.68
* COc1cncc(Cc2ccc(-c3ccccc3)nc2)c1 | 8.30
* Oc1cncc(Cc2ccc(-c3ccccc3)nc2)c1 | 7.29
* c1ccc2c(-c3ccc(Cn4ccnc4)cn3)cccc2c1 | 7.17
* c1ccc(-c2cncc(Cc3ccc(-c4ccccc4)nc3)c2)cc1 | 8.89
* c1ccc2c(-c3ccc(C(C4CC4)n4ccnc4)cn3)cccc2c1 (centres undefined) | 6.82
* c1cn(Cc2ccc(-c3ccsc3)nc2)cn1 | 6.74
* c1ccc(-c2ccc(Cn3ccnc3)nn2)cc1 | 5.77
* c1ccc(-c2ccc(Oc3cccnc3)cn2)cc1 | 5.99
* Fc1cncc(Cc2ccc(-c3ccccc3)nc2)c1 | 6.90
* c1cn(C(c2ccc(-c3ccsc3)nc2)C2CC2)cn1 (centres undefined) | 7.96
* NC(=O)c1cncc(Cc2ccc(-c3ccccc3)nc2)c1 | 6.37
* Cc1ccncc1Cc1ccc(-c2ccccc2)nc1 | 8.10
* c1ccc(-c2ccc(C(c3ccco3)n3ccnc3)cn2)cc1 (centres undefined) | 7.16
* c1ccc(-c2ccc(Cc3ccncc3)cn2)cc1 | 7.01
* CCC(c1ccc(-c2ccccc2)nc1)n1ccnc1 (centres undefined) | 7.55
* c1ccc(-c2ccc(Cn3ccnc3)cn2)cc1 | 6.97
* c1ccc(-c2ccc(C(c3ccccc3)n3ccnc3)cn2)cc1 (centres undefined) | 6.91
* c1ccc(-c2ncc(Cn3ccnc3)cn2)cc1 | 5.95
* CC(c1ccc(-c2ccccc2)nc1)n1ccnc1 (centres undefined) | 7.48
* c1ccc(-c2ccc(C(C3CC3)n3ccnc3)cn2)cc1 (centres undefined) | 7.68
* Cc1cncc(Cc2ccc(-c3ccccc3)nc2)c1 | 8.70
* c1ccc(-c2ccc(Cc3cncnc3)cn2)cc1 | 6.62
* c1ccc(-c2ccc(Cc3cccnc3)cn2)cc1 | 7.49
* c1ccc(-c2ncc(Cn3ccnc3)c3ccccc23)cc1 | 7.06
